Sourced from patent US20220387586A1

molecular target: T1, biotinylated PD1-ECD-AviHis (human, UniProt Q15116 25-170, biotinylated); assay: PD-L2 replacing ELISA on coated PD1-ECD-AviHis; competitor PD-L2 Fc chimera
T1 construct: also called huPD1; hu PD1; not shown: Avi-His tag
T1 sequence (Q15116 25-170): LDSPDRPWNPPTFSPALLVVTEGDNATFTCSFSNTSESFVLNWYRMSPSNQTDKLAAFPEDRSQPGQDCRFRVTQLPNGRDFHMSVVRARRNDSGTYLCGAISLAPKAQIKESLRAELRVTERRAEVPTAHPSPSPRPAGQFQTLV
Field: label. Allowed values: 1 (IC50 < 0.09 µg/mL) or 0 (IC50 >= 0.09 µg/mL).

Here's what some known entries look like.
{"binder": "PD1-0102 (antibody, V domains shown) VH: DVQLQESGPDLVKPSQSLSLTCTVTGYSITSGYSWHWIRQFPGNKLEWMGFIHSSGDTNYNPSLKSRISFTRDTSKNQFFLQLSSLTDEDTATYYCATYRNWYFDVWGAGTTVTVSS VL: DIVMTQSPSSLTVTAGEKVTMRCKSSQSLLNSGTQKNYLTWYQQKPGQPPKLLIYWASTRESGVPNRFTGSGSGTDFTLTISSVQAEDLSVYYCQSDYTFPLTFGGGTKLELK", "class-name": 0}
{"binder": "PD1-0078 (antibody, V domains shown) VH: QVQLQQPGAELVKPGASVKMSCKASGYTFTSTWMHWVKQRPGQGLEWIGAIDPSDSYTTYNQKFKGKATLTVDTSSTTAYMQLSSLTSEDSAVYYCTRSPFDYWGQGTTLTVSS VL: DIVMTQSHKFMSTSVGDRVSITCKASQDVSTAVAWYQQKPGQSPKLLIYSASYRYTGVPDRFTGSGSGTDFTFAISSVQAEDLAVYYCQQHYSHPFTFGSGTKLEIK", "class-name": 1}
{"binder": "PD1-0050 (antibody, V domains shown) VH: DVQLQESGPGLVKPSQSLSLTCTVTGYSITSDYAWNWIRQFPGNKLEWMGYITYTGRTSYNPSLKSRISITRDTSKNQFFLQLNSVTTEDTATYYCAREMDYYGSTLDYWGQGTTLTVSS VL: KIVLTQSPASLAVSLRQRATISCRASESVDRYGNSFIHWYQQKPGQPPKVLIYRASNLESGFPARFSGSGSRTDFTLTIDPVEADDAATYYCQQNNEDPYTFGSGTKLEIK", "class-name": 1}

Asked: IC50 strictly < 0.09 µg/mL for this binder? PD1-0103 (antibody, V domains shown, Mouse hybridoma antibody; also called murine anti-PD1 antibody PD1-0103) VH: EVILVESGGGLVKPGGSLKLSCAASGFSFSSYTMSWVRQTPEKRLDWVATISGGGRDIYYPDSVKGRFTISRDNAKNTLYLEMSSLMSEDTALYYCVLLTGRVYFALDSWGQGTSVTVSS VL: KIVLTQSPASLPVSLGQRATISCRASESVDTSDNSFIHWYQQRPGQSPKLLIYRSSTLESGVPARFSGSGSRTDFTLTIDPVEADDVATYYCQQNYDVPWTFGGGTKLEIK
Given back: 1
